- studyTarget: human TLR7 (wild type sequence) (Homo sapiens)
- Construct: expressed in transfected cells; host or cells: HEK293
- Sequence (Q9NYK1 27-1049): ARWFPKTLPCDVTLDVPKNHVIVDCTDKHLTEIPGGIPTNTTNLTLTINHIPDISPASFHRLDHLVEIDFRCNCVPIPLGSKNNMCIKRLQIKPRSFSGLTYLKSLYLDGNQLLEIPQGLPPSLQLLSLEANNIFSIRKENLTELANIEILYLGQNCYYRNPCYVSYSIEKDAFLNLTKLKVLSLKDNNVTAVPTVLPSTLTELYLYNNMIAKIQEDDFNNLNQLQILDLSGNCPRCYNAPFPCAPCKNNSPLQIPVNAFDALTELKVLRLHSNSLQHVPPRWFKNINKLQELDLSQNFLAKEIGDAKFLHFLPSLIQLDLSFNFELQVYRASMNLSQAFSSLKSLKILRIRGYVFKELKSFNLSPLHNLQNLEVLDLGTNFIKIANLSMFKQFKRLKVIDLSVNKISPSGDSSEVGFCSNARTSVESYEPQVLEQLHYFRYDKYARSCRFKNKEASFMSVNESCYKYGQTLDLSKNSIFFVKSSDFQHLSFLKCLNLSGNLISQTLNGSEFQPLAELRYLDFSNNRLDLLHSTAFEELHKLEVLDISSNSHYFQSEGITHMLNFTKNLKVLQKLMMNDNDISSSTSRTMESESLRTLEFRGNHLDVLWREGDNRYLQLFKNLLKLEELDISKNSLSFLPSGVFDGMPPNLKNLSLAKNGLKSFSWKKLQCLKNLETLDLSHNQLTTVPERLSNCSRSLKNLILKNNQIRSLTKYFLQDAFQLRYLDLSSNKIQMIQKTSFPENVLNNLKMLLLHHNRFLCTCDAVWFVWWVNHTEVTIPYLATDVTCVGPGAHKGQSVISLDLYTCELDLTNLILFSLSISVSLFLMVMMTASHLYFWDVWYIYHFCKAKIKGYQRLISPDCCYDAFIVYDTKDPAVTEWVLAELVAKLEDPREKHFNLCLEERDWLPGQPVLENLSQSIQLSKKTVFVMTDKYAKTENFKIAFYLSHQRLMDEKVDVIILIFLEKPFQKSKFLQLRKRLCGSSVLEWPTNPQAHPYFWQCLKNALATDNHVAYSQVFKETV
- experimentDescription: TLR7 cellular NFκB-luc reporter assay, wild type TLR7
- Format: cell-based
- Parameters: unit not given here
- conditionSummary: lowest effective concentration, wild type TLR7
Hi, to clarify the labels: 1 covers TLR7-wt_LEC from 0.6 upward, -1 covers anything below 0.6.

Worked set:
{"compound": "CCCC[C@@H](CCO)Nc1nc(N)ncc1OCCCc1ccc2c(c1)OCO2", "studyTarget": "human TLR7 (wild type sequence) (Homo sapiens)", "classAssignment": -1}
{"compound": "CCC[C@@H](CCO)Nc1nc(N)ncc1OCCCc1ccc(OC)cc1", "studyTarget": "human TLR7 (wild type sequence) (Homo sapiens)", "classAssignment": -1}
{"compound": "CCC[C@@H](CCO)Nc1nc(N)nc(C)c1OCc1nccc2ccccc12", "studyTarget": "human TLR7 (wild type sequence) (Homo sapiens)", "classAssignment": 1}

Does TLR7-wt_LEC meet or surpass 0.6 for CCCC[C@@H](CO)Nc1nc(N)ncc1OCCCc1ccc(OC)cc1 ? -1

Does TLR7-wt_LEC meet or surpass 0.6 for CCCC[C@@H](CO)Nc1nc(N)ncc1OCc1cc(C)n(C)n1 ? -1

Does TLR7-wt_LEC meet or surpass 0.6 for CCCC[C@@H](CCO)Nc1nc(N)ncc1OCc1cc2ccccc2cn1 ? -1

Does TLR7-wt_LEC meet or surpass 0.6 for CCCC[C@@H](CCOC(=O)C(C)C)Nc1nc(N)ncc1OC ? 1

Does TLR7-wt_LEC meet or surpass 0.6 for CCCCNc1nc(N)ncc1OCC1CCOC1 (stereo not drawn) ? 1

Does TLR7-wt_LEC meet or surpass 0.6 for CCCC[C@@H](CCO)Nc1nc(N)ncc1OCc1cncn1[C@@H](C)c1ccccc1 ? 1

* * *

- studyTarget: human TLR7 (wild type sequence) (Homo sapiens, UniProt Q9NYK1)
- Construct: expressed in transfected cells; host or cells: HEK293
- experimentDescription: TLR7 cellular NFκB-luc reporter assay, wild type TLR7
- Assay type: cell-based
- Design: unit not given here
- conditionSummary: lowest effective concentration, wild type TLR7
Hi, to clarify the labels: 1 covers TLR7-wt_LEC from 0.7 upward, 0 covers anything below 0.7.

Worked set:
{"compound": "CCCC[C@@H](CO)Nc1nc(N)ncc1OCc1nccc2ccccc12 [Compound 216]", "studyTarget": "human TLR7 (wild type sequence) (Homo sapiens, UniProt Q9NYK1)", "classAssignment": 0}
{"compound": "CCCC[C@@H](CCO)Nc1nc(N)ncc1OCc1nn(C)c2ccccc12 [Compound 240]", "studyTarget": "human TLR7 (wild type sequence) (Homo sapiens, UniProt Q9NYK1)", "classAssignment": 0}
{"compound": "CCC[C@H](C)Nc1nc(N)ncc1OCc1cn2ccccc2n1 [Compound 251]", "studyTarget": "human TLR7 (wild type sequence) (Homo sapiens, UniProt Q9NYK1)", "classAssignment": 0}
{"compound": "CCC[C@@H](CCO)Nc1nc(N)ncc1OCc1cccc(C)n1 [Compound 227]", "studyTarget": "human TLR7 (wild type sequence) (Homo sapiens, UniProt Q9NYK1)", "classAssignment": 0}
{"compound": "CCCCNc1nc(N)ncc1O[C@@H](C)c1ccccn1 [Compound 262]", "studyTarget": "human TLR7 (wild type sequence) (Homo sapiens, UniProt Q9NYK1)", "classAssignment": 0}

Does TLR7-wt_LEC meet or surpass 0.7 for CCCCNc1nc(N)ncc1OCCN1CCOCC1 [Compound 269] ? 1

Does TLR7-wt_LEC meet or surpass 0.7 for CCC[C@@H](CO)Nc1nc(N)ncc1OCc1ccccn1 [Compound 239] ? 0

Does TLR7-wt_LEC meet or surpass 0.7 for CCCC(C)Nc1nc(N)ncc1OCCCc1ccc2c(c1)OCO2 (stereo not shown) [Compound 265] ? 1

Does TLR7-wt_LEC meet or surpass 0.7 for CCCCNc1nc(N)ncc1OC[C@H](C)OC [Compound 287] ? 1

Does TLR7-wt_LEC meet or surpass 0.7 for CCCC[C@@H](C[C@@H](C)O)Nc1nc(N)ncc1OC [Compound 300] ? 1

* * *

- studyTarget: human TLR8 (wild type sequence) (Homo sapiens)
- Construct: expressed in transfected cells; host or cells: HEK293
- Sequence (Q9NR97 27-1041): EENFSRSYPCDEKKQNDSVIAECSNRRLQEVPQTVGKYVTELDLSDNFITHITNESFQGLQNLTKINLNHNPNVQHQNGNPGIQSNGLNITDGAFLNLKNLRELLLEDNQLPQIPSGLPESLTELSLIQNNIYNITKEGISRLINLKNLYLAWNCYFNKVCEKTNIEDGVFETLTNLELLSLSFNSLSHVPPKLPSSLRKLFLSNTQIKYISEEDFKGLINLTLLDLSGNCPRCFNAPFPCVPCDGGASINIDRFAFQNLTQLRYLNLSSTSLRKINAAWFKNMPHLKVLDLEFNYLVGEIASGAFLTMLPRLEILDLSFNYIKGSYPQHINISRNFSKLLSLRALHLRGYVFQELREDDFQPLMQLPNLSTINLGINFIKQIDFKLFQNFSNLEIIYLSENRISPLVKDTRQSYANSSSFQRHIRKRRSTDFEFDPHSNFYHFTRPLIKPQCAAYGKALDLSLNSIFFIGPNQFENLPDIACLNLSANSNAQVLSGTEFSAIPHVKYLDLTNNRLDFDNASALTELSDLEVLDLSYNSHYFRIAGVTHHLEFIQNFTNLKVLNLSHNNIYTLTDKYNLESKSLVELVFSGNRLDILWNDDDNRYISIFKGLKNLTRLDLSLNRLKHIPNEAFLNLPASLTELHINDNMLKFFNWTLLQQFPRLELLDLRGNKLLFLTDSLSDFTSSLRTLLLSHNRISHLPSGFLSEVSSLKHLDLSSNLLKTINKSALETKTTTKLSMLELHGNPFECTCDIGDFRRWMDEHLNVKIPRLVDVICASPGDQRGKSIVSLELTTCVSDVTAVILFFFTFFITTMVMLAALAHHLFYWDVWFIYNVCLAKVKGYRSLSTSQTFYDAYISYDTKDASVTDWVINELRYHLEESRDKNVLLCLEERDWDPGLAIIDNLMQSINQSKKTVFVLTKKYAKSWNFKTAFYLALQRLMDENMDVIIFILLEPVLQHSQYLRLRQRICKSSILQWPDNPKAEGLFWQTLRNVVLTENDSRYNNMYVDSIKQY
- experimentDescription: TLR8 cellular NFκB-luc reporter assay, wild type TLR8
- Type: cell-based
- Parameters: unit not given here
- conditionSummary: lowest effective concentration, wild type TLR8 (compounds 74 onward)
Threshold 1: TLR 8 wt LEC strictly smaller gives 1.0, otherwise 0.0.

{"compound": "C=CCNc1nc(N)ncc1OC [Compound 90]", "classAssignment": 0.0}
{"compound": "CCCCNc1nc(N)ncc1OCCCc1ccc(Cl)cc1Cl [Compound 152]", "classAssignment": 0.0}
{"compound": "CCCCNc1nc(N)ncc1OCc1ccccn1 [Compound 101]", "classAssignment": 1.0}
{"compound": "CCCCNc1nc(N)ncc1OCc1cc(OCC2CC2)c(OC)cn1 [Compound 175]", "classAssignment": 0.0}
{"compound": "CCCCNc1nc(N)ncc1OCc1cccc(C(N)=O)n1 [Compound 176]", "classAssignment": 1.0}
{"compound": "CCCCNc1nc(N)ncc1OCc1ccc(F)cc1 [Compound 95]", "classAssignment": 0.0}

Quick check: does CCCCNc1nc(N)ncc1OCCCc1ccccc1C(F)(F)F [Compound 162] have TLR 8 wt LEC under 1? 0.0

Quick check: does CCCCCC(C)Nc1nc(N)ncc1OCc1ccc2ccccc2n1 (stereo not drawn) [Compound 189] have TLR 8 wt LEC under 1? 0.0

Quick check: does CCCCNc1nc(N)ncc1OCCOc1ccccc1C(F)(F)F [Compound 131] have TLR 8 wt LEC under 1? 0.0

Quick check: does CCCCNc1nc(N)ncc1OCCCc1cccc(OC)c1 [Compound 146] have TLR 8 wt LEC under 1? 0.0

Quick check: does COc1cnc(N)nc1N[C@H](CO)CC(C)C [Compound 93] have TLR 8 wt LEC under 1? 0.0

Quick check: does CCCCNc1nc(N)ncc1OCCOc1ccncc1 [Compound 84] have TLR 8 wt LEC under 1? 1.0

Quick check: does CCCCNc1nc(N)ncc1OCc1cccc(CC(=O)OC)c1 [Compound 137] have TLR 8 wt LEC under 1? 0.0

Quick check: does CCCCNc1nc(N)ncc1OCc1ncccc1OC [Compound 179] have TLR 8 wt LEC under 1? 1.0

* * *

- studyTarget: human TLR8 (wild type sequence) (Homo sapiens)
- Construct: expressed in transfected cells; host or cells: HEK293
- experimentDescription: TLR8 cellular NFκB-luc reporter assay, wild type TLR8
- Type: cell-based
- Set-up: unit not given here
- conditionSummary: lowest effective concentration, wild type TLR8 (compounds 1-73)
Hi, to clarify the labels: yes covers TLR8-wt_LEC from 3 upward, no covers anything below 3.

Does TLR8-wt_LEC meet or surpass 3 for CCCCNc1nc(N)ncc1OCc1cccnc1 ? no

Does TLR8-wt_LEC meet or surpass 3 for CCCCNc1nc(N)ncc1OC(C)c1ccccc1 (centres unmarked) ? yes

Does TLR8-wt_LEC meet or surpass 3 for CCCC(CO)Nc1nc(N)ncc1OC (centres unmarked) ? no

Does TLR8-wt_LEC meet or surpass 3 for CCCCNc1nc(N)ncc1OCc1cccc(C(=O)OC)c1 ? no
